system: TBK1; details: concentration: 1 μM, replicates: in singlicate; n = 1;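 also: KINOMEscan kinase panel screen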
TEST READOUT: %Inh (%)
State the answer as a number, implicitly in %.

COMPOUND | TARGET | %Inh (%)
CN(c1ccc2c(c1)nc(NCc1ccccc1)n2C)c1ccnc(Nc2ccc(CS(C)(=O)=O)cc2)n1.Cl | TBK1 | 4
NCCC(NC(=O)c1cc(Br)c(-c2ccnc3[nH]ccc23)s1)c1ccccc1.O=C(O)C(F)(F)F.O=C(O)C(F)(F)F (stereo not drawn) | TBK1 | 5

Let us examine a further case.
(Q) Field request: %Inh | item: `c1ccc(Oc2ccc(Nc3ccnc4cc(-c5ccc(CN6CCCCC6)o5)ccc34)cc2)nc1`
(A) 0
